- study-system: primate D1A receptors expressed in C-6 glioma cells (Macaca mulatta)
- Sequence (O77680 whole entry): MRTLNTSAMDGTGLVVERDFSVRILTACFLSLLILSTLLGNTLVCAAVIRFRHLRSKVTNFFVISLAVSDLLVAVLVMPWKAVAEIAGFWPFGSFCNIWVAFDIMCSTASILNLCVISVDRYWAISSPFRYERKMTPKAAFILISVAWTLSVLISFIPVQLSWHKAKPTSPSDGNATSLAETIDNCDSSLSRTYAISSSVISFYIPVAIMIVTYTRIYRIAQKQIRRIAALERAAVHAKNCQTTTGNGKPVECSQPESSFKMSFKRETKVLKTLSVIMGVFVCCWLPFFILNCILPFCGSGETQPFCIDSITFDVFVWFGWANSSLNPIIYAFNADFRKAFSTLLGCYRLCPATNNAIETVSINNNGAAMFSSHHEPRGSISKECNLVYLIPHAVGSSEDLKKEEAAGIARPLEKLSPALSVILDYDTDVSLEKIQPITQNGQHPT
- assay-comment: Adenylate cyclase (cAMP accumulation) assay in C-6-mD1A cell membranes
- condition-label: C-6-mD1 cells; average of two experiments in duplicate; read-out: EC50 in stimulating synthesis of cAMP via D1 receptors
pEC50: −log10 of the molar value.
readout-label: pEC50

Q. Give the measured pEC50 of Oc1ccc2c(c1O)Cc1cccc3c1C2CNC3 (racemic) .
A. ~7.52

----------
- study-system: D1 receptors
- assay-comment: Adenylate cyclase activity (cAMP accumulation) in rat striatal homogenates
- condition-label: rat striatum; read-out: EC50 in stimulating synthesis of cAMP via D1 receptors
readout-label: EC50

Q. Which EC50 is listed for Oc1ccc2c(c1O)Cc1cccc3c1C2CNC3 (racemic) ?
A. ~30 nM

----------
- study-system: rat striatal D1 receptors (Rattus norvegicus, UniProt P18901)
- Construct: Frozen rat striata were homogenized; from tissue; host or cells: rat striatum (adult male Sprague Dawley), washed membrane homogenate
- Sequence (P18901 whole entry): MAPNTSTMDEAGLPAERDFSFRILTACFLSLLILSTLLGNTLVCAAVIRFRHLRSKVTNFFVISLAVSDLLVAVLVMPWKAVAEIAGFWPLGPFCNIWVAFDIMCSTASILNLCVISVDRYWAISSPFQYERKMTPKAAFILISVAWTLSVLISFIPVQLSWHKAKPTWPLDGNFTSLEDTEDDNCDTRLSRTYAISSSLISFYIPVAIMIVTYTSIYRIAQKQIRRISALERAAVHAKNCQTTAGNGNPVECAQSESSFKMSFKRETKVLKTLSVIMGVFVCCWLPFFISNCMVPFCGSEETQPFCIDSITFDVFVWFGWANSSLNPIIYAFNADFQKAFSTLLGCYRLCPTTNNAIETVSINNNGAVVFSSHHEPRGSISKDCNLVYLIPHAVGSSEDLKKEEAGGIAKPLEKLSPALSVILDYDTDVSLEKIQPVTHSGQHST
- assay-comment: D1 receptor binding ([3H]SCH23390) in rat striatal homogenates
- condition-label: competition against 3H-SCH23390; rat striatal homogenates
// reported D1 binding nH (Hill slope) for each item listed

// solved cases for D1 binding nH (Hill slope) follow
{"molecule": "Oc1cc2c(cc1O)C(c1ccccc1)CNCC2 (single isomer, unassigned) [SKF 38393]", "D1 binding nH (Hill slope)": "0.75 ± 0.08"}
{"molecule": "Oc1cc2c(cc1O)[C@H]1c3ccccc3CN[C@@H]1CC2 [dihydrexidine]", "D1 binding nH (Hill slope)": "0.65 ± 0.01"}
{"molecule": "CN1CCc2cc(Cl)c(O)cc2[C@@H](c2ccccc2)C1 [SCH23390]", "D1 binding nH (Hill slope)": "1.05 ± 0.01"}

Lab note: next molecule to report on.
Q. Value lookup for D1 binding nH (Hill slope); key = Oc1ccc2c(c1O)Cc1cccc3c1C2CNC3 (racemic) [dinapsoline]
A. 0.66
